The measurements presented in this section are drawn from patent US10760110B2.

Entries annotated with measured MIC
Tested on: K. pneumoniae NVT1001 strains with QnrB, QnrS or AAC(6′)-Ib-cr plasmids
Protocol details: Etest MIC of quinolones, GyrA/ParC mutations, ΔramR and/or QnrB, QnrS or AAC(6′)-Ib-cr (Table 12)
Type: cell-based
Condition details: Klebsiella pneumoniae, no supplemental plasmid; ΔramR/S83I mutant
Kindly answer with a numeric value in µg/mL, unit omitted.

Completed entries (count: 2):
smi=COc1c(N2C[C@@H]3CCCN[C@@H]3C2)c(F)cc2c(=O)c(C(=O)O)cn(C3CC3)c12 units_of_measure=µg/mL number=8
smi=CCn1cc(C(=O)O)c(=O)c2cc(F)c(N3CCNCC3)cc21 units_of_measure=µg/mL number=8

Shifting focus to the molecule that follows.
Suppose we examine the molecule C[C@H]1COc2c(N3CCN(C)CC3)c(F)cc3c(=O)c(C(=O)O)cn1c23 ; what MIC value has been reported?
16

----------
Entries annotated with measured MIC
Tested on: K. pneumoniae NVT1001 ΔramRΔompK35/36 mutant and its revertants
Protocol details: Etest MIC, ΔramRΔompK35/36 mutant and its revertants (Table 7)
Assay type: cell-based
Condition details: Klebsiella pneumoniae, ΔramRΔompK35/36::ramR revertant
Kindly answer with a numeric value in µg/mL, unit omitted.

Suppose we examine the compound C[C@@H](O)[C@H]1C(=O)N2C(C(=O)O)=C(SCCN=CN)C[C@H]12 ; what MIC value has been reported?
0.5

----------
System: K. pneumoniae NVT1001 strains with ESBL or AmpC β-lactamase plasmids
Protocol details: Etest MIC of β-lactams, OmpK35/36 loss, ΔramR and/or extended-spectrum β-lactamase and AmpC β-lactamase (Table 8)
Assay type: cell-based, Klebsiella pneumoniae
Condition details: Klebsiella pneumoniae, CTX-M-14 on pACYC177; ΔramRΔ36 (ΔramRΔompK36 mutant)
Entries annotated with measured MIC
Kindly answer with a numeric value in µg/mL, unit omitted.

Completed entries (count: 2):
smi=C[C@H]1[C@H](NC(=O)/C(=N\OC(C)(C)C(=O)O)c2csc(N)n2)C(=O)N1S(=O)(=O)O observation_type=MIC units_of_measure=µg/mL number=16
smi=C[C@@H](O)[C@H]1C(=O)N2C(C(=O)O)=C(S[C@@H]3CN[C@H](C(=O)N(C)C)C3)[C@H](C)[C@H]12 observation_type=MIC units_of_measure=µg/mL number=2

Give MIC (K. pneumoniae NVT1001 strains with ESBL or AmpC β-lactamase plasmids) of the following molecule: CC(C)(O/N=C(\C(=O)N[C@@H]1C(=O)N2C(C(=O)[O-])=C(C[n+]3ccccc3)CS[C@H]12)c1csc(N)n1)C(=O)O
8

----------
Test system: K. pneumoniae NVT1001 strains with aminoglycoside resistance plasmids
Protocol details: Etest MIC of aminoglycosides, aminoglycoside-modifying enzyme or 16S rRNA methylase (Table 13)
Assay type: cell-based, Klebsiella pneumoniae
Condition details: NVT1001 with ANT(2″)-Ia on pACYC184
Observation type: MIC (µg/mL)
Kindly answer with a numeric value in µg/mL, unit omitted.

Completed entries (count: 2):
molecule="NC[C@H]1O[C@H](O[C@H]2[C@H](O)[C@@H](O[C@H]3O[C@H](CO)[C@@H](O)[C@H](N)[C@H]3O)[C@H](N)C[C@@H]2N)[C@H](N)C[C@@H]1O [TOB]" units_of_measure=µg/mL number=64
molecule="CN[C@@H]1[C@H](O[C@H]2[C@H](O[C@H]3[C@H](O)[C@@H](O)[C@H](N=C(N)N)[C@@H](O)[C@@H]3N=C(N)N)O[C@@H](C)[C@]2(O)C=O)O[C@@H](CO)[C@H](O)[C@H]1O [STR]" units_of_measure=µg/mL number=2

Suppose we examine the molecule NCC[C@H](O)C(=O)N[C@@H]1C[C@H](N)[C@@H](O[C@H]2O[C@H](CN)[C@@H](O)[C@H](O)[C@H]2O)[C@H](O)[C@H]1O[C@H]1O[C@H](CO)[C@@H](O)[C@H](N)[C@H]1O [AMK] ; what MIC value has been reported?
2

Suppose we examine the molecule CCN[C@@H]1C[C@H](N)[C@@H](O[C@H]2OC(CN)=CC[C@H]2N)[C@H](O)[C@H]1O[C@H]1OC[C@](C)(O)[C@H](NC)[C@H]1O [NET] ; what MIC value has been reported?
1

Suppose we examine the molecule CN[C@@H]1[C@H](O)[C@H](NC)[C@H]2O[C@@]3(O)C(=O)C[C@@H](C)O[C@H]3O[C@@H]2[C@H]1O [SPT] ; what MIC value has been reported?
16

----------
Test system: K. pneumoniae NVT1001 strains with QnrB, QnrS or AAC(6′)-Ib-cr plasmids
Protocol details: Etest MIC of quinolones, GyrA/ParC mutations, ΔramR and/or QnrB, QnrS or AAC(6′)-Ib-cr (Table 12)
Assay type: cell-based
Condition details: Klebsiella pneumoniae, QnrS on pACYC177; S83I/D87N/S80I mutant
Procedure: DNA fragments of the resistance genes along with their flanking regions were amplified from clinical plasmids via PCR with specific primer pairs. The resulting PCR fragments were digested and then cloned into the plasmid pACYC177 or pACYC184. The resulting plasmids were then transformed into K. pneumoniae strain NVT1001 via electroporation. […] The MICs of antibiotics were determined using the Etest (Biodisk AB, Sweden) according to the manufacturer's instructions. […]
Observation type: MIC

molecule="CCn1cc(C(=O)O)c(=O)c2ccc(C)nc21 [Nalidixic acid, nalidixic acid]" result="> 256 µg/mL"
molecule="C[C@H]1COc2c(N3CCN(C)CC3)c(F)cc3c(=O)c(C(=O)O)cn1c23 [Levofloxacin, levofloxacin]" result="> 32 µg/mL"
molecule="CC1COc2c(N3CCN(C)CC3)c(F)cc3c(=O)c(C(=O)O)cn1c23 (centres unmarked) [Ofloxacin, ofloxacin]" result="> 32 µg/mL"
molecule="COc1c(N2C[C@@H]3CCCN[C@@H]3C2)c(F)cc2c(=O)c(C(=O)O)cn(C3CC3)c12 [Moxifloxacin, moxifloxacin]" result="> 32 µg/mL"

Shifting focus to the molecule that follows.
Suppose we examine the molecule CCn1cc(C(=O)O)c(=O)c2cc(F)c(N3CCNCC3)cc21 [Norfloxacin, norfloxacin] ; what MIC value has been reported?
128 µg/mL

----------
Test system: K. pneumoniae NVT1001 strains with QnrB, QnrS or AAC(6′)-Ib-cr plasmids
Protocol details: Etest MIC of quinolones, GyrA/ParC mutations, ΔramR and/or QnrB, QnrS or AAC(6′)-Ib-cr (Table 12)
Format: cell-based
Condition details: Klebsiella pneumoniae, AAC(6′)-Ib-cr on pACYC177; ΔramR/S83I/D87N/S80I mutant
Entries annotated with measured MIC

Suppose we examine the compound C[C@H]1COc2c(N3CCN(C)CC3)c(F)cc3c(=O)c(C(=O)O)cn1c23 [Levofloxacin, levofloxacin] ; what MIC value has been reported?
> 32 µg/mL

Suppose we examine the compound COc1c(N2C[C@@H]3CCCN[C@@H]3C2)c(F)cc2c(=O)c(C(=O)O)cn(C3CC3)c12 [Moxifloxacin, moxifloxacin] ; what MIC value has been reported?
> 32 µg/mL

Suppose we examine the compound CC1COc2c(N3CCN(C)CC3)c(F)cc3c(=O)c(C(=O)O)cn1c23 (centres unmarked) [Ofloxacin, ofloxacin] ; what MIC value has been reported?
> 32 µg/mL

Suppose we examine the compound CCn1cc(C(=O)O)c(=O)c2cc(F)c(N3CCNCC3)cc21 [Norfloxacin, norfloxacin] ; what MIC value has been reported?
> 256 µg/mL

Suppose we examine the compound CCn1cc(C(=O)O)c(=O)c2ccc(C)nc21 [Nalidixic acid, nalidixic acid] ; what MIC value has been reported?
> 256 µg/mL

----------
Entries annotated with measured MIC
Tested on: K. pneumoniae NVT1001 strains with carbapenemase plasmids
Protocol details: Etest MIC of β-lactams, OmpK35/36 loss, ΔramR and/or carbapenemase (Table 9)
Type: cell-based, Klebsiella pneumoniae
Condition details: Klebsiella pneumoniae, KPC-3 on pACYC177; Δ35 (ΔompK35 mutant)
Kindly answer with a numeric value in µg/mL, unit omitted.

Completed entries (count: 2):
molecule=CO/N=C(\C(=O)N[C@@H]1C(=O)N2C(C(=O)O)=C(COC(C)=O)CS[C@H]12)c1csc(N)n1 number=256
molecule="CO/N=C(\\C(=O)N[C@@H]1C(=O)N2C(C(=O)[O-])=C(C[N+]3(C)CCCC3)CS[C@H]12)c1csc(N)n1 [Cefepime]" number=128

Suppose we examine the molecule C[C@@H](O)[C@H]1C(=O)N2C(C(=O)O)=C(S[C@@H]3CN[C@H](C(=O)N(C)C)C3)[C@H](C)[C@H]12 ; what MIC value has been reported?
32

----------
Entries annotated with measured MIC
System: K. pneumoniae NVT1001 strains with carbapenemase plasmids
Protocol details: Etest MIC of β-lactams, OmpK35/36 loss, ΔramR and/or carbapenemase (Table 9)
Type: cell-based, Klebsiella pneumoniae
Condition details: Klebsiella pneumoniae, OXA-48 on pACYC177; ΔramRΔ35 (ΔramRΔompK35 mutant)
Kindly answer with a numeric value in mg/L, unit omitted.

Completed entries (count: 4):
smi=C[C@@H](O)[C@H]1C(=O)N2C(C(=O)O)=C(S[C@@H]3CN[C@H](CNS(N)(=O)=O)C3)[C@H](C)[C@H]12 observation_type=MIC units_of_measure=mg/L number=1
smi=C[C@H]1[C@H](NC(=O)/C(=N\OC(C)(C)C(=O)O)c2csc(N)n2)C(=O)N1S(=O)(=O)O observation_type=MIC units_of_measure=mg/L number=0.5
smi=CO[C@@]1(NC(=O)Cc2cccs2)C(=O)N2C(C(=O)O)=C(COC(N)=O)CS[C@@H]21 observation_type=MIC units_of_measure=mg/L number=64
smi=CCO/N=C(\C(=O)N[C@@H]1C(=O)N2C(C(=O)[O-])=C(Sc3nc(-c4cc[n+](C)cc4)cs3)CS[C@H]12)c1nsc(N)n1 observation_type=MIC units_of_measure=mg/L number=8

Suppose we examine the compound CO/N=C(\C(=O)N[C@@H]1C(=O)N2C(C(=O)O)=C(COC(N)=O)CS[C@H]12)c1ccco1 ; what MIC value has been reported?
64

Suppose we examine the compound C[C@@H](O)[C@H]1C(=O)N2C(C(=O)O)=C(SCCN=CN)C[C@H]12 ; what MIC value has been reported?
4

Suppose we examine the compound CC(C)(O/N=C(\C(=O)N[C@@H]1C(=O)N2C(C(=O)[O-])=C(C[n+]3ccccc3)CS[C@H]12)c1csc(N)n1)C(=O)O ; what MIC value has been reported?
2
